# Tested on: Phosphodiesterase 10A (PDE10A) (Rattus norvegicus)
# Sequence (Q9QYJ6 1-794): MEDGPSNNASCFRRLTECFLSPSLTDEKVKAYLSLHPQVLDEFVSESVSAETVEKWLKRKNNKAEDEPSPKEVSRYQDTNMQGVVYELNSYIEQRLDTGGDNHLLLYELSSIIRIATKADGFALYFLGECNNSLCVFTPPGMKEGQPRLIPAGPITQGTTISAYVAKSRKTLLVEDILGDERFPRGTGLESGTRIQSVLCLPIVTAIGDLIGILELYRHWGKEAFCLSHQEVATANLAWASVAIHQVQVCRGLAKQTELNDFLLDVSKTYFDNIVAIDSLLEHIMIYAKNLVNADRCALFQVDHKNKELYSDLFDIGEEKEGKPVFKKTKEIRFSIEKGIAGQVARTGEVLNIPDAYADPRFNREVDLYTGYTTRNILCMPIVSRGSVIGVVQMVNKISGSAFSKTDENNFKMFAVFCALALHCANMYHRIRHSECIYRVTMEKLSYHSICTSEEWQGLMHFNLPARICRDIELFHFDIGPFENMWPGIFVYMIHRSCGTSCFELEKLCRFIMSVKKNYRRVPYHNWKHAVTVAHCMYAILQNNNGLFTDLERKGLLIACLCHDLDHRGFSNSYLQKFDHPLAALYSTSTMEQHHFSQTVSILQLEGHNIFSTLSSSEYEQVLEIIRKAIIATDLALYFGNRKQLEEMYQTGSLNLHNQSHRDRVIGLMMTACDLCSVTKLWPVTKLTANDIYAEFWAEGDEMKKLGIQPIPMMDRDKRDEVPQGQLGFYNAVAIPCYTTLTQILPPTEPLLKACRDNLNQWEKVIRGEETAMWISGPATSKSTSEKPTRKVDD
Property measured: pKd
Give bare numbers, as −log10 of the molar value.

Please give the measured pKd for this compound: COc1cn(-c2ccc(-n3cccn3)cc2F)nc(-c2ccnn2-c2ccccc2)c1=O
8.59
